# assayedTarget: CDK2 (Homo sapiens)
# procedureSummary: Phospho-Rb HTRF measurement in OVCAR3 cells (inhibition of CDK2)
# Assay type: cell-based
# Set-up: High-Throughput Measurement of Cellular Endogenous CDK2; endogenous in cells; host or cells: OVCAR3
# conditionParameters: pRB(S807/811) assay, 24 h compound treatment
# Experimental: Phosphorylation of RB protein at S780 and S807/811 were measured using HTRF phospho-RB cellular kits (Cat #64RBS780PEG and 64RBS807PEG) from Cisbio. On Day 1, OVCAR3 or KYSE520 cells were seeded into 96-well tissue-culture treated plates at 20,000 cells/well in 200 μL and incubated overnight at 37° C. in CO2 atmosphere. […] Detection plates were incubated for 4 h at room temperature and read on ClarioStar (BMG Labtech) in TR-FRET mode (665 nM and 620 nM). […]
Below, each entry is listed with its recorded pIC50.
pIC50 here is simply -log10 of the concentration when that concentration is written in mol/L.

The cases that follow already have their pIC50 on record.
CC1(O)CCCC1n1c(=O)ccc2cnc(NC3CCN(S(=O)(=O)c4cccc(CN5CCN(c6ccc7c(c6)CN(C6CCC(=O)NC6=O)C7=O)CC5)c4)CC3)nc21 (stereo not drawn) [Compound 55]	7.15
CN(CCCOCCCc1cccc2c1n(C)c(=O)n2C1CCC(=O)NC1=O)S(=O)(=O)N1CCC(Nc2ncc3ccc(=O)n(C4CCCC4)c3n2)CC1 (stereo not drawn) [Compound 19]	6.15
O=C1CCC(N2Cc3cc(N4CC5CCC4CN5Cc4cccc(S(=O)(=O)N5CCC(Nc6ncc7ccc(=O)n(C8CCCC8)c7n6)CC5)c4)ccc3C2=O)C(=O)N1 (stereo not drawn) [Compound 51]	6.81
O=C1CCC(N2Cc3cc(N4CC5CC4CN5Cc4cccc(S(=O)(=O)N5CCC(Nc6ncc7ccc(=O)n(C8CCCC8)c7n6)CC5)c4)ccc3C2=O)C(=O)N1 (stereo not drawn) [Compound 53]	6.59
O=C1CCC(N2Cc3cc(N4CCC(Oc5cccc(S(=O)(=O)N6CCC(Nc7ncc8ccc(=O)n(C9CCCC9)c8n7)CC6)c5)CC4)ccc3C2=O)C(=O)N1 (stereo not drawn) [Compound 33]	6.50

Now for the compound whose pIC50 we want.
Record Cn1c(=O)n(C2CCC(=O)NC2=O)c2cccc(C3CN(Cc4cccc(S(=O)(=O)N5CCC(Nc6ncc7ccc(=O)n(C8CCCC8)c7n6)CC5)c4)C3)c21 (stereo not drawn) [Compound 40] , field pIC50: 6.87

----------
Below, each entry is listed with its recorded IC50.
# assayedTarget: CDK2 (Homo sapiens)
# procedureSummary: NanoBRET CDK2 engagement assay
# Assay type: cell-based
# Parameters: expressed in transfected cells
# conditionParameters: OVCAR3 cells with stable CDK2-Luciferase vector, 24 hours treatment
Numeric answer only, unit µM assumed.

The cases that follow already have their IC50 on record.
O=C1CCC(N2C(=O)c3ccc(CN4CC(Oc5cccc(S(=O)(=O)N6CCC(Nc7ncc8ccc(=O)n(C9CCCC9)c8n7)CC6)c5)C4)cc3C2=O)C(=O)N1 (centres unmarked)	0.45
CN(C1CCN(Cc2cccc3c2n(C)c(=O)n3C2CCC(=O)NC2=O)CC1)S(=O)(=O)N1CCC(Nc2ncc3ccc(=O)n(C4CCCC4)c3n2)CC1 (centres unmarked)	0.127
O=C1CCC(N2Cc3cc(N4C5CCC4CN(Cc4cccc(S(=O)(=O)N6CCC(Nc7ncc8ccc(=O)n(C9CCCC9)c8n7)CC6)c4)C5)ccc3C2=O)C(=O)N1 (centres unmarked)	0.499
O=C1CCC(N2Cc3cc(N4CCN(Cc5cccc(S(=O)(=O)N6CCC(Nc7ncc8ccc(=O)n(C9CCCC9)c8n7)CC6)c5)CC4)c(F)cc3C2=O)C(=O)N1 (centres unmarked)	0.297
O=C1CCC(N2Cc3cc(C4CCN(CC5CCN(c6cccc(S(=O)(=O)N7CCC(Nc8ncc9ccc(=O)n(C%10CCCC%10)c9n8)CC7)c6)CC5)CC4)ccc3C2=O)C(=O)N1 (centres unmarked)	0.139
O=C1CCC(N2Cc3cc(N4CC5(CCN(Cc6cccc(S(=O)(=O)N7CCC(Nc8ncc9ccc(=O)n(C%10CCCC%10)c9n8)CC7)c6)CC5)C4)ccc3C2=O)C(=O)N1 (centres unmarked)	0.291
O=C1CCC(N2Cc3cc(N4CCC(CN5CCN(c6cccc(S(=O)(=O)N7CCC(Nc8ncc9ccc(=O)n(C%10CCCC%10)c9n8)CC7)c6)CC5)CC4)ccc3C2=O)C(=O)N1 (centres unmarked)	0.0423
O=C1CCC(N2Cc3cc(N4CCN(Cc5cccc(S(=O)(=O)N6CCC(Nc7ncc8ccc(=O)n(C9CCCC9)c8n7)CC6)c5)CC4)ccc3C2=O)C(=O)N1 (centres unmarked)	0.289
O=C1CCC(N2C(=O)c3cc(F)c(N4CCN(Cc5cc(F)cc(S(=O)(=O)N6CCC(Nc7ncc8ccc(=O)n(C9CCCC9)c8n7)CC6)c5)CC4)cc3C2=O)C(=O)N1 (centres unmarked)	0.401
O=C1CCC(N2C(=O)c3cc(F)c(N4CC5CCC(C4)N5Cc4cccc(S(=O)(=O)N5CCC(Nc6ncc7ccc(=O)n(C8CCCC8)c7n6)CC5)c4)cc3C2=O)C(=O)N1 (centres unmarked)	0.272

Now for the compound whose IC50 we want.
Record CO[C@H]1CN(S(=O)(=O)c2cccc(CN3CCN(c4cc5c(cc4F)C(=O)N(C4CCC(=O)NC4=O)C5=O)CC3)c2)CC[C@@H]1Nc1ncc2ccc(=O)n(C3CCCC3)c2n1 (some centres unmarked) , field IC50: 3.04

----------
# assayedTarget: CDK2 (Homo sapiens, UniProt P24941)
# procedureSummary: NanoBRET CDK2 engagement assay
# Type: cell-based
# Parameters: expressed in transfected cells
# conditionParameters: OVCAR3 cells with stable CDK2-Luciferase vector, 24 hours treatment
Below, each entry is listed with its recorded IC50.
Numeric answer only, unit nM assumed.

Record Cn1c(=O)n(C2CCC(=O)NC2=O)c2cccc(C3CCN(C4CCN(S(=O)(=O)N5CCC(Nc6ncc7ccc(=O)n(C8CCCC8)c7n6)CC5)CC4)CC3)c21 (stereo not drawn) [Compound 31] , field IC50: 64

Record O=C1CCC(N2Cc3cc(N4CCN(Cc5cccc(S(=O)(=O)N6CCC(Nc7ncc8cc(C(F)F)c(=O)n(C9CCCC9)c8n7)CC6)c5)CC4)ccc3C2=O)C(=O)N1 (stereo not drawn) [Compound 56] , field IC50: 241

Record Cn1c(=O)n(C2CCC(=O)NC2=O)c2cccc(CCCOC3CCN(S(=O)(=O)N4CCC(Nc5ncc6ccc(=O)n(C7CCCC7)c6n5)CC4)CC3)c21 (stereo not drawn) [Compound 16] , field IC50: 320

Record O=C1CCC(N2C(=O)c3cc(F)c(N4CCN(Cc5cccc(S(=O)(=O)N6CCC(Nc7ncc8ccc(=O)n(C9CCCC9)c8n7)CC6)c5)CC4)cc3C2=O)C(=O)N1 (stereo not drawn) [Compound 48] , field IC50: 722

Record O=C1CCC(N2C(=O)c3cccc(NCCOCCOCCNS(=O)(=O)N4CCC(Nc5ncc6ccc(=O)n(C7CCCC7)c6n5)CC4)c3C2=O)C(=O)N1 (stereo not drawn) [Compound 9] , field IC50: 675

Record Cn1c(=O)n(C2CCC(=O)NC2=O)c2cccc(CNCCOc3cccc(S(=O)(=O)N4CCC(Nc5ncc6ccc(=O)n(C7CCCC7)c6n5)CC4)c3)c21 (stereo not drawn) [Compound 41] , field IC50: 214

Record O=C1CCC(N2Cc3c(OCCN4CC(Oc5cccc(S(=O)(=O)N6CCC(Nc7ncc8ccc(=O)n(C9CCCC9)c8n7)CC6)c5)C4)cccc3C2=O)C(=O)N1 (stereo not drawn) [Compound 27] , field IC50: 334

Record Cn1c(=O)n(C2CCC(=O)NC2=O)c2cccc(C3CCN(C4CC5(C4)CN(S(=O)(=O)N4CCC(Nc6ncc7ccc(=O)n(C8CCCC8)c7n6)CC4)C5)CC3)c21 (stereo not drawn) [Compound 32] , field IC50: 59

Record O=C1CCC(N2Cc3cc(N4CC5(CN(Cc6cccc(S(=O)(=O)N7CCC(Nc8ncc9ccc(=O)n(C%10%11CC(C%10)C%11)c9n8)CC7)c6)C5)C4)ccc3C2=O)C(=O)N1 (stereo not drawn) [Compound 62] , field IC50: 284

Record O=C1CCC(N2Cc3cc(N4CC5(CN(Cc6cccc(S(=O)(=O)N7CCC(Nc8ncc9ccc(=O)n(C%10CCCC%10)c9n8)CC7)c6)C5)C4)ccc3C2=O)C(=O)N1 (stereo not drawn) [Compound 60] , field IC50: 64.5

Record Cn1c(=O)n(C2CCC(=O)NC2=O)c2cccc(C3CCN(C4CCN(c5cccc(S(=O)(=O)N6CCC(Nc7ncc8ccc(=O)n(C9CCCC9)c8n7)CC6)c5)CC4)CC3)c21 (stereo not drawn) [Compound 39] , field IC50: 94

Record O=C1CCC(N2Cc3cc(N4CCN(CC5CCN(c6cccc(S(=O)(=O)N7CCC(Nc8ncc9ccc(=O)n(C%10CCCC%10)c9n8)CC7)c6)CC5)CC4)ccc3C2=O)C(=O)N1 (stereo not drawn) [Compound 36] , field IC50: 212

Record Cn1c(=O)n(C2CCC(=O)NC2=O)c2cccc(C3CCN(C4CN(c5cccc(S(=O)(=O)N6CCC(Nc7ncc8ccc(=O)n(C9CCCC9)c8n7)CC6)c5)C4)CC3)c21 (stereo not drawn) [Compound 72] , field IC50: 425

Record CN(CCN(C)S(=O)(=O)N1CCC(Nc2ncc3ccc(=O)n(C4CCCC4)c3n2)CC1)Cc1ccc(N(C)c2cccc3c2C(=O)N(C2CCC(=O)NC2=O)C3=O)cc1 (stereo not drawn) [Compound 22] , field IC50: 903

Record O=C1CCC(N2C(=O)c3cc(F)c(N4CCN(Cc5cccc(S(=O)(=O)N6CC[C@H](Nc7ncc8ccc(=O)n(C9CCCC9)c8n7)[C@H](F)C6)c5)CC4)cc3C2=O)C(=O)N1 (stereo partly drawn) [Compound 63] , field IC50: 265

Record Cn1c(=O)n(C2CCC(=O)NC2=O)c2cccc(C#CCOC3CCN(CC4CCN(S(=O)(=O)N5CCC(Nc6ncc7ccc(=O)n(C8CCCC8)c7n6)CC5)CC4)CC3)c21 (stereo not drawn) [Compound 13] , field IC50: 292

Record O=C1CCC(N2Cc3cc(CN4CC(Oc5cccc(S(=O)(=O)N6CCC(Nc7ncc8ccc(=O)n(C9CCCC9)c8n7)CC6)c5)C4)ccc3C2=O)C(=O)N1 (stereo not drawn) [Compound 67] , field IC50: 150

Record CN1C(=O)CCC(N2C(=O)c3cccc(OCC(=O)NCCOCCN4CCN(S(=O)(=O)N5CCC(Nc6ncc7ccc(=O)n(C8CCCC8)c7n6)CC5)CC4)c3C2=O)C1=O (stereo not drawn) [compound 5] , field IC50: 4110

Record O=C1CCC(N2C(=O)c3cccc(CCCOCCOCCNS(=O)(=O)N4CCC(Nc5ncc6ccc(=O)n(C7CCCC7)c6n5)CC4)c3C2=O)C(=O)N1 (stereo not drawn) [Compound 11] , field IC50: 499

Record O=C1CCC(N2C(=O)c3ccc(CN4CC(Oc5ccc(S(=O)(=O)N6CCC(Nc7ncc8ccc(=O)n(C9CCCC9)c8n7)CC6)cc5)C4)cc3C2=O)C(=O)N1 (stereo not drawn) [compound 8] , field IC50: 257

Record O=C1CCC(N2C(=O)c3cc(F)c(N4CCN(Cc5cccc(S(=O)(=O)N6CCC(Nc7ncc8cc(C(F)F)c(=O)n(C9CCCC9)c8n7)CC6)c5)CC4)cc3C2=O)C(=O)N1 (stereo not drawn) [Compound 45] , field IC50: 378
